# System: PPAR-β (Homo sapiens)
# Construct: expressed in transfected cells; host or cells: HeLa cells
# Sequence (Q03181 whole entry, species assumed): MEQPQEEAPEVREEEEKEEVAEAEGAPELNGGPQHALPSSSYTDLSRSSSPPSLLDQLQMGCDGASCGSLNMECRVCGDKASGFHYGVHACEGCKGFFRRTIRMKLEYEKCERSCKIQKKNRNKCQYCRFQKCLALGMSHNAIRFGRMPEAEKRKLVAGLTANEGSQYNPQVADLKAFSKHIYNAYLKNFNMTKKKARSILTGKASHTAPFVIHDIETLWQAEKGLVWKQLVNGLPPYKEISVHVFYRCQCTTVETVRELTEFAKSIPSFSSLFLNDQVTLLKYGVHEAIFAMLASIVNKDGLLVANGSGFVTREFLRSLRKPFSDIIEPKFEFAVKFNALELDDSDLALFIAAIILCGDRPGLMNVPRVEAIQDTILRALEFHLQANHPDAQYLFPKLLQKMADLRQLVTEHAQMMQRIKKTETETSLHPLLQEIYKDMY
# Assay Notes: PPAR-β transactivation test (luciferase reporter, cotransfected HeLa cells)
# Format: cell-based
# Condition Description: HeLa cells cotransfected, 24 hours; concentration giving 50% of the activity of the reference molecule
Assay Readout: AC50 (nM)

compound_structure_string=CC1(C)CCC(C)(C)c2cc(Oc3ccc(C=CC(=O)O)cc3)ccc21 assay_readout=AC50 numeric_readout=900

a = CC1(C)CCC(C)(C)c2cc(Oc3ccc4cc(C(=O)O)ccc4c3)ccc21
b = CC1(C)CCC(C)(C)c2cc(Sc3ccc4cc(C(=O)O)ccc4c3)ccc21
c = CC1(C)CCC(C)(C)c2cc(Nc3ccc4cc(C(=O)O)ccc4c3)ccc21
Please list these compounds in decreasing order of AC50. Kindly provide the labels arranged according to the requested ordering. c, a, b

* * *

# System: PPAR-α (Homo sapiens)
# Construct: expressed in transfected cells; host or cells: HeLa cells
# Sequence (Q07869 whole entry, species assumed): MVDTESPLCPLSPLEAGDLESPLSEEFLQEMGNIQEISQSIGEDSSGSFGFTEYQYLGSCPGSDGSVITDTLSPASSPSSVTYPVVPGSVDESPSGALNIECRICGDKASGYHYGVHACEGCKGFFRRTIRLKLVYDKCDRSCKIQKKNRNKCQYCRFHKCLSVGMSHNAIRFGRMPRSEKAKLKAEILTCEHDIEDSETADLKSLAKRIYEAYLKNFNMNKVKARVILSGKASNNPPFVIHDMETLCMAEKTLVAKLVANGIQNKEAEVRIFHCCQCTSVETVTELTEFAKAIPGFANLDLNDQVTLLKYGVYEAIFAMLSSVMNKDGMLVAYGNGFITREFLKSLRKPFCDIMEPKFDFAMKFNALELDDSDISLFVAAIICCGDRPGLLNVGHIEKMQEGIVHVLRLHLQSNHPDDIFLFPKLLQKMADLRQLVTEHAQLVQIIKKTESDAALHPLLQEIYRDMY
# Assay Notes: PPAR-α transactivation test (luciferase reporter, cotransfected HeLa cells)
# Format: cell-based
# Set-up: concentration or dose not given beside the values
# Condition Description: HeLa cells cotransfected with receptor vector and PPRE-luciferase reporter, 24 hours; relative to Reference 1
Assay Readout: % of activation, α (%)

Previously resolved entries follow.
compound="CC1=NC(=Cc2ccc(Oc3ccc4c(c3)C(C)(C)CCC4(C)C)cc2)C(=O)O1 [Comparative Example 1, reference compound]" readout_unit=% numeric_readout=5
compound="Cc1cccc(Nc2cc(Cl)nc(SCC(=O)O)n2)c1C [Reference 1, reference compound]" readout_unit=% numeric_readout=100

P = CC(=CC(=O)O)c1ccc(Oc2ccc3c(c2)C(C)(C)CCC3(C)C)cc1
Q = CC1(C)CCC(C)(C)c2cc(Sc3ccc4cc(C(=O)O)ccc4c3)ccc21
Of the two listed items, P and Q , which carries the larger % of activation, α figure? Lab note: record the label of whichever item you select. Q
(Q: 24%, P: 12%)
